Each recorded value in this set is attributed to ChEMBL document CHEMBL1125117.

System: Rattus norvegicus
Assay: In vivo inhibitory activity against fluid in reverse passive Arthus reaction (RPAR) assay at dose 25 mg/kg in the pleural cavity of rats.
Format: functional
Please use rule met whenever inhibition in vivo at 25 mg/kg is not below 40%, and rule not met whenever it is.

Say whether CSC1(C)C(=O)N(c2ccccc2)c2ncccc21 (configuration not stated) shows inhibition in vivo at 25 mg/kg of 40% or more.
rule met

Does the molecule CC(C)N1C(=O)C(C)(C)c2cccnc21 have recorded inhibition in vivo at 25 mg/kg that is 40% or more?
rule not met

Item CSc1ccc(N2C(=O)C(C)(C)c3cccnc32)cc1 with inhibition in vivo at 25 mg/kg of 40% or above?
rule not met

Is it the case that CC1(C)C(=O)N(c2ccc(F)cc2F)c2ncccc21 has inhibition in vivo at 25 mg/kg reaching or exceeding 40%?
rule not met

Hi, just wondering whether CC1(C)C(=O)N(c2ccc(Cl)cc2)c2ccccc21 shows inhibition in vivo at 25 mg/kg of 40% or higher.
rule not met

# bool: inhibition in vivo at 25 mg/kg of CCC1(C)C(=O)N(c2ccccc2)c2ncccc21 (configuration not stated) >= 40%
rule not met

Would you say COc1ccc(N2C(=O)C(C)(C)c3cccnc32)cc1 shows inhibition in vivo at 25 mg/kg at minimum 40%?
rule met

###

System: Rattus norvegicus
Test: In vivo inhibitory activity against fluid in reverse passive Arthus reaction (RPAR) assay at dose 25 mg/kg in the pleural cavity of rats.
Type: functional
OBSERVABLE: inhibition in vivo at 25 mg/kg (%)
Note: unit % is implicit; provide only the numeric part.

Quote inhibition in vivo at 25 mg/kg reported for CC1(F)C(=O)N(c2ccccc2)c2ncccc21 (stereo unspecified) please.
35

Quote inhibition in vivo at 25 mg/kg reported for CCCCC1(C)C(=O)N(c2ccccc2)c2ncccc21 (stereo unspecified) please.
5

Indicate its recorded inhibition in vivo at 25 mg/kg; the compound in question is CC1(C)C(=S)N(c2ccc(Cl)cc2)c2ncccc21
42

Name the recorded inhibition in vivo at 25 mg/kg of the item CC1(C)C(=O)N(c2ccc(Br)cc2)c2ncccc21 in your answer.
55

Name the recorded inhibition in vivo at 25 mg/kg of the compound listed here: CC1(C)C(=O)N(c2ccccc2Cl)c2ncccc21
3

Hello, please tell me recorded inhibition in vivo at 25 mg/kg for this one: CC1(C)C(=O)N(c2ccc(Cl)c(Cl)c2)c2ncccc21
25

###

Biological target: Polyunsaturated fatty acid 5-lipoxygenase (Homo sapiens) (UniProt P09917)
Sequence (P09917 whole entry): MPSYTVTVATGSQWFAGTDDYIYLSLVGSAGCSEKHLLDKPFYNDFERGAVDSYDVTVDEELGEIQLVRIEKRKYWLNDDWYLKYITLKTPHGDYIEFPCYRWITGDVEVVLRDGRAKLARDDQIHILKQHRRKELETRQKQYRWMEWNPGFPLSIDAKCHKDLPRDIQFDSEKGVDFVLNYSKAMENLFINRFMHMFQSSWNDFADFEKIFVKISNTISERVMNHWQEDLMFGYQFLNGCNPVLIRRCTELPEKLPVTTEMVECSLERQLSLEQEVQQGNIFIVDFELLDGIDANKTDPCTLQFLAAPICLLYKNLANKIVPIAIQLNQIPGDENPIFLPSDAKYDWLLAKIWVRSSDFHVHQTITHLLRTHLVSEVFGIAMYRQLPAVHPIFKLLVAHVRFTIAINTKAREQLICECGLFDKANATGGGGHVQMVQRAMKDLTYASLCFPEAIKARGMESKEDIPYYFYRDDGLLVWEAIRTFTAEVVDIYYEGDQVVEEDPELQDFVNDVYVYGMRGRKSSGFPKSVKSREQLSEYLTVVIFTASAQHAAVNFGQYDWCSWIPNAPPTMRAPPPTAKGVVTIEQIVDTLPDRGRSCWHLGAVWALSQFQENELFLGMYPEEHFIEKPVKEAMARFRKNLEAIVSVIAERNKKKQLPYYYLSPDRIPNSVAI
Assay: In vitro inhibitory activity against 5-lipoxygenase in human polymorphonuclear (PMN) cells
Settings: concentration not given here
Exercise: state measured inhibition for each of the compounds provided.
Numeric answer only, unit % assumed.

Give reported inhibition for CC(C)N1C(=O)C(C)(C)c2cccnc21 (Polyunsaturated fatty acid 5-lipoxygenase (Homo sapiens) (UniProt P09917))
6

Recall the reported inhibition of CC1(C)C(=S)N(c2ccc(Cl)cc2)c2ncccc21 on Polyunsaturated fatty acid 5-lipoxygenase (Homo sapiens) (UniProt P09917) and write it down.
17

Supply inhibition measured with Polyunsaturated fatty acid 5-lipoxygenase (Homo sapiens) (UniProt P09917) for Cc1c(Cl)cccc1N1C(=O)C(C)(C)c2cccnc21 .
7

Write inhibition of CC1(C)C(=O)N(c2ccccc2)c2ncccc21 ; system used: Polyunsaturated fatty acid 5-lipoxygenase (Homo sapiens) (UniProt P09917)
0

Lab note: record inhibition of CC(C)(C(=O)[O-])c1cccnc1Nc1ccc(Cl)cc1.[Na+] tested on Polyunsaturated fatty acid 5-lipoxygenase (Homo sapiens) (UniProt P09917).
0

// fetch inhibition for CCCCC1(C)C(=O)N(c2ccccc2)c2ncccc21 (stereo unspecified) ; system: Polyunsaturated fatty acid 5-lipoxygenase (Homo sapiens) (UniProt P09917)
13
